# Tested on: A549 NSCLC
# EXPERIMENT NOTES: NCI tumour cell line growth inhibition, 48 h; in the data active = GI50 below about 0.43 µM; inactive = the rest
Assign a class; possible classes are T (active), F (inactive)

Record excerpt, results attached:
| MOLECULE | ASSIGNED CLASS |
| --- | --- |
| O=C(Nc1nc2c(C(F)(F)F)cccc2s1)c1cc(Cl)ccc1O | T |
| Cc1cc(OCc2ccc(C(F)(F)F)cc2)c2c(c1)C(=O)C=C(NCCN1CCCC1)C2=O | F |
| CC1=CC(C)=N/C(=N/S(=O)(=O)c2cc(C)c(Cl)cc2SCc2ccccc2)NN1 | F |
| Cc1[nH]nc(C(F)(F)F)c1Cc1sc2c(c1C(=O)N1C[C@](C)(O)CO1)c(=O)n(C)c(=O)n2C(C)C | F |
| Oc1c(C(c2ccc(F)cc2)N2CCCCC2)ccc2cncnc12 (centres undefined) | T |

Which outcome was assigned to CCN1CCN(C(=O)[C@]23CC[C@@H](C)[C@H](C)[C@@H]2C2=CC[C@@H]4[C@@]5(C)CCC(=O)C(C)(C)[C@@H]5CC[C@@]4(C)[C@]2(C)CC3)CC1 in this test?
F

Which outcome was assigned to CC(C)(C)NCC(O)c1ccccc1Cl (centres undefined) in this test?
F

Which outcome was assigned to CCCCCCC(=O)NC1=C(N2CC2)C(=O)C(NC(=O)CCCCCC)=C(N2CC2)C1=O in this test?
F

Which outcome was assigned to COc1nn(C)cc1Nc1nccc(-c2c[nH]c3c(NC(=O)[C@@H](C)N4CCN(C)CC4)cccc23)n1 in this test?
F

---

# Test system: CCRF-CEM leukemia
# EXPERIMENT NOTES: NCI tumour cell line growth inhibition, 48 h
Overview of reported GI50 across a group of compounds:

Examples from the recorded data:
| COMPOUND | GI50 |
| --- | --- |
| CCC[CH2][Sn]1([CH2]CCC)[O]C(=O)c2cccc([N+](=O)[O-])c2C(=O)[O]1 | 61.7 nM |
| Cc1nnc(N/N=C/c2ccc([N+](=O)[O-])o2)[nH]c1=O | 441 nM |
| O=C(Nc1cccc([N+](=O)[O-])c1)c1cccc(C(=O)Nc2cccc([N+](=O)[O-])c2)c1 | > 100000 nM |
| COC(=O)Nc1nc2ccc(C(=O)c3cccc(I)c3)cc2[nH]1 | 40.2 nM |
| CC1Cc2c(Cl)ncnc2N(C)c2ccccc21 (stereo unspecified) | 4530 nM |

GET /values?readout=GI50&item= CCOC(=O)N1CCC(N=C2CSc3nnc(-c4cc(C(F)(F)F)cc(C(F)(F)F)c4)n3N2)CC1
2010 nM

---

# Tested on: NCI-H226 lung
# EXPERIMENT NOTES: NCI tumour cell line growth inhibition, 48 h
Overview of reported TGI across a group of compounds:
Report only the number, with the unit µM understood.

GET /values?readout=TGI&item= COc1cc2c(cc1OCC(=O)Nc1ccc(Cl)cc1C(=O)c1ccccc1Cl)N=CC1CCCN1C2=O (stereo not given)
34.3

GET /values?readout=TGI&item= CCCCCCCCCCCCCCNCC(OC)OC
34.4

---

# Test system: NCI-H460 lung
# EXPERIMENT NOTES: NCI tumour cell line growth inhibition, 48 h
MEASURED PROPERTY: TGI (µM)
Report only the number, with the unit µM understood.

Examples from the recorded data:
| STRUCTURE AS SMILES | MEASURED PROPERTY | VALUE MEASURED |
| --- | --- | --- |
| COC(=O)Nc1nc2ccc(C(=O)c3cccc(I)c3)cc2[nH]1 | TGI | 4.33 |
| CC1(C)CCC2=C(O1)c1ccccc1C(=Nc1ccc([N+](=O)[O-])cc1)C2=O | TGI | 29.1 |

GET /values?readout=TGI&item= CCN1CCN(c2ccc(NC(=O)Nc3nc4ccc(-c5ccccc5OC)cc4s3)cc2)CC1
3.27

---

Overview of reported TGI across a group of molecules:
# Test system: OVCAR-5 ovarian
# EXPERIMENT NOTES: NCI tumour cell line growth inhibition, 48 h

Examples from the recorded data:
| MOLECULE | MEASURED PROPERTY | VALUE MEASURED |
| --- | --- | --- |
| [N-]=[N+]=Nc1cc(=O)[nH]c2ccccc12 | TGI | > 100 µM |
| COc1ccccc1-c1csc(CCC(N)C(=O)O)n1 (stereo not given) | TGI | > 100 µM |
| CC(C)(C)OC(=O)N1C(=O)C2CCCC21 (stereo not given) | TGI | > 100 µM |

Query for OVCAR-5 ovarian: what TGI does the record show for C=C1C(=O)O[C@@H]2/C=C(/C)[C@@H](OC(C)=O)C[C@@H](O)/C(C)=C\[C@@H](OC(=O)[C@]3(C)O[C@@H]3C)[C@@H]12 ?
32.6 µM

Query for OVCAR-5 ovarian: what TGI does the record show for COc1cc(C(c2ccccc2)N2C(=O)CC[C@H]2C(=O)O)cc(OC)c1OC (stereo not given in full) ?
> 100 µM

Query for OVCAR-5 ovarian: what TGI does the record show for CN1C(=O)N(C)C2C1NC(=S)N2/N=C/C=C/c1ccccc1[N+](=O)[O-] (stereo not given) ?
> 100 µM

Query for OVCAR-5 ovarian: what TGI does the record show for CCC(=O)NC1=C(Cl)C(=O)C(NC(=O)CC)=C(Cl)C1=O ?
40.5 µM

Query for OVCAR-5 ovarian: what TGI does the record show for O=C(Nc1cccc([N+](=O)[O-])c1)c1cccc(C(=O)Nc2cccc([N+](=O)[O-])c2)c1 ?
> 100 µM

Query for OVCAR-5 ovarian: what TGI does the record show for CCC[N+](C)(C)CCCNC(=O)c1c(O)c2ccccc2[nH]c1=O ?
> 100 µM

Query for OVCAR-5 ovarian: what TGI does the record show for O=C(CSc1nc2ccc(I)cc2c(=O)n1Cc1ccccc1)Nc1ccccc1 ?
> 100 µM

Query for OVCAR-5 ovarian: what TGI does the record show for C[C@@H]1CC[C@@H]2[C@@H]1[C@H](OC(=O)/C=C/C1CCCCC1)[C@]1(C3CCCCC3)C[C@@H](OC(=O)CO)[C@@]2(C)O1 ?
29.9 µM

Query for OVCAR-5 ovarian: what TGI does the record show for COc1cc2c(cc1OCC(=O)Nc1ccc(Cl)cc1C(=O)c1ccccc1Cl)N=CC1CCCN1C2=O (stereo not given) ?
45.5 µM

---

# Test system: SK-MEL-5 melanoma
# EXPERIMENT NOTES: NCI tumour cell line growth inhibition, 48 h
MEASURED PROPERTY: TGI (µM)
Report only the number, with the unit µM understood.

| COMPOUND | TGI, µM |
| --- | --- |
| Clc1cnc(Nc2ccc(OCCN3CCCC3)cc2)nc1NCc1ccco1 | 3.42 |

GET /values?readout=TGI&item= COC(=O)CC[C@@H](C)[C@H]1CC[C@H]2[C@@H]3CC[C@@H]4C[C@H](O)CC[C@]4(C)[C@H]3CC[C@]12C
31

GET /values?readout=TGI&item= CCC(O)CCCCCCCCCCCCCCC(=O)O (stereo unspecified)
40.6

GET /values?readout=TGI&item= C[Si](C)(C)OC1(C#N)c2ccccc2CCCC12CCCC2 (stereo unspecified)
56.2

GET /values?readout=TGI&item= O=[N+]([O-])c1ccc2c(c1)C(N1CCN(CCO)CC1)Cc1ccc(F)cc1S2 (stereo unspecified)
3.48

---

Overview of reported TGI across a group of compounds:
# System: HCC-2998 colon
# EXPERIMENT NOTES: NCI tumour cell line growth inhibition, 48 h
Report only the number, with the unit µM understood.

Examples from the recorded data:
| STRUCTURE AS SMILES | TARGET SYSTEM | TGI [µM] |
| --- | --- | --- |
| CC1(C)CCC2=C(O1)c1ccccc1C(=Nc1ccc([N+](=O)[O-])cc1)C2=O | HCC-2998 colon | 32.2 |
| Cc1cc(N(CCC#N)S(=O)(=O)c2ccccc2)ccc1C=Nc1ccc(C(=O)O)cc1 | HCC-2998 colon | 27.5 |
| O=C1C(c2ccccc2)=C(c2ccccc2)C1(Cl)Cl | HCC-2998 colon | 13.3 |

GET /values?readout=TGI&item= CCN(CC)CCOc1nc2ccccc2c2c1-c1ccc(OC)cc1C2=O
3.21

GET /values?readout=TGI&item= COc1cc(OC)c(/C=C/C(=O)c2c(OC)cc(OC)cc2OC)c(OC)c1
10

---

# System: NCI/ADR-RES ovarian
# EXPERIMENT NOTES: NCI tumour cell line growth inhibition, 48 h
MEASURED PROPERTY: TGI

Examples from the recorded data:
| COMPOUND | TARGET SYSTEM | MEASURED PROPERTY | VALUE MEASURED |
| --- | --- | --- | --- |
| Cc1cnc2c(c1)C(=O)N(c1ccc(Oc3ccccc3)cc1)S2(=O)=O | NCI/ADR-RES ovarian | TGI | > 100 µM |
| CC1(C)CCC2=C(O1)c1ccccc1C(=Nc1ccc([N+](=O)[O-])cc1)C2=O | NCI/ADR-RES ovarian | TGI | > 100 µM |
| COc1cc2c(cc1OCC(=O)Nc1ccc(Cl)cc1C(=O)c1ccccc1Cl)N=CC1CCCN1C2=O (stereo not given) | NCI/ADR-RES ovarian | TGI | 64.8 µM |
| COc1c(C(N)=O)cc(-c2ccc(Cl)cc2)cc1-c1ccc(S(N)(=O)=O)cc1 | NCI/ADR-RES ovarian | TGI | > 25 µM |
| N=c1ncn(C/C=C/c2ccccc2)c2nc[nH]c12 | NCI/ADR-RES ovarian | TGI | > 100 µM |
| COC(=O)/C1=C/C=C\C[C@@]2(C)CC(c3ccoc3)OC(=O)[C@@H]2CC[C@H]1C (stereo not given in full) | NCI/ADR-RES ovarian | TGI | > 25 µM |

Query for NCI/ADR-RES ovarian: what TGI does the record show for CCOC(=O)C1=C(Nc2ccc(OC)cc2)C(N)=NC1=N ?
> 100 µM

Query for NCI/ADR-RES ovarian: what TGI does the record show for CCOC(=O)c1sc2nc(SC)nc3c2c1NCN3C ?
> 100 µM

Query for NCI/ADR-RES ovarian: what TGI does the record show for C=CCc1c(O)c(C(=O)/C=C/c2ccc(Cl)cc2)c(OC)c2ccoc12 ?
5.86 µM

Query for NCI/ADR-RES ovarian: what TGI does the record show for COCC(C#N)NC1CC(OC2CC(O)(C(=O)CO)Cc3c(O)c4c(c(O)c32)C(=O)c2c(OC)cccc2C4=O)OC(C)C1O (stereo not given) ?
16 µM
